Answer each item with its documented PBM E-score.
# TARGET SYSTEM: Cin5 (UniProt P40917)
# Sequence: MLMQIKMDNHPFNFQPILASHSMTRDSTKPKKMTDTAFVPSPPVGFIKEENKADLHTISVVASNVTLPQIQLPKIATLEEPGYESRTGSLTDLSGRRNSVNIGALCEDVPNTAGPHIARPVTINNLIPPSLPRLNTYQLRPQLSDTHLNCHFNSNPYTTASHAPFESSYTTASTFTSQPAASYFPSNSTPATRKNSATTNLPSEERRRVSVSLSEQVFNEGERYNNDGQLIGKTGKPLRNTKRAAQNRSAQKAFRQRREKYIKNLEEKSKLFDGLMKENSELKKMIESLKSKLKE
# PROCEDURE SUMMARY: PBM E-score (8-mer binding enrichment) (E-score (-0.5 to 0.5)); higher = stronger / more preferred TF binding
# CONDITION NOTES: protein concentration: 100 nM; construct: GST-full length
Over roughly 33,000 sequences, “E-score (-0.5 to 0.5)” has its median near -0.0059; the highest 2% begin near 0.26. Many of the other results were omitted from the sample, so the highest values are more common in it than they were.
Answers are plain numbers.

Reference set (3 entries):
{"RESIDUE SEQUENCE": "TCGATGCA", "PBM E-score": 0.152}
{"RESIDUE SEQUENCE": "ACTAAGAT", "PBM E-score": 0.2}
{"RESIDUE SEQUENCE": "AAACCTGT", "PBM E-score": 0.0662}

Field: PBM E-score. Fill in for each record below.
1. CGCCAAGC
2. AGCAAGGC
3. GCTTCTAA
4. CTACAAAC
5. GGGCGAAA
6. GAGGCGAC

[-0.235, -0.0671, -0.109, 0.043, 0.0331, -0.213]
